ASSAY_OVERVIEW: Competitive inhibition of porcine pancreas elastase activity assessed as inhibition constant using N-succinyl-Ala-Ala-Ala-p-nitroanilide as substrate by Lineweaver-Burk plot analysis
Parameters: species or system Sus scrofa

[
  {
    "SUBSTANCE_SMILES": "O=C(N/N=C/c1ccc2ccccc2n1)c1ccc([N+](=O)[O-])cc1",
    "Ki": "820 nM"
  }
]

---

Collected pIC50 values appear next to each entry.
ASSAY_OVERVIEW: Inhibition of porcine pancreas elastase activity preincubated for 10 mins along with substrate followed by enzyme addition using N-succinyl-Ala-Ala-Ala-p-nitroanilide as substrate and measured after 30 mins by microplate reader assay
Parameters: species or system Sus scrofa
pIC50: −log10 of the molar value.

[
  {
    "SUBSTANCE_SMILES": "O=C(N/N=C/c1ccc2ccccc2n1)c1ccco1",
    "pIC50": 5.67
  },
  {
    "SUBSTANCE_SMILES": "O=C(N/N=C/c1ccc2ccccc2n1)c1ccccc1F",
    "pIC50": 5.88
  },
  {
    "SUBSTANCE_SMILES": "O=C(N/N=C/c1ccc2ccccc2n1)c1ccccc1",
    "pIC50": 4.20
  },
  {
    "SUBSTANCE_SMILES": "O=C(N/N=C/c1ccc2ccccc2n1)c1ccc([N+](=O)[O-])cc1",
    "pIC50": 6.05
  },
  {
    "SUBSTANCE_SMILES": "O=C(N/N=C/c1ccc2ccccc2n1)c1cccc(Br)c1",
    "pIC50": 4.98
  },
  {
    "SUBSTANCE_SMILES": "COc1cccc(C(=O)N/N=C/c2ccc3ccccc3n2)c1",
    "pIC50": 5.69
  }
]
